Target: recombinant homotrimeric HA, A/Solomon Islands/3/06 H1N1 (Influenza A virus A/Solomon Islands/3/06 (H1N1))
Experiment: trimeric HA microarray, transfection set 2
Settings: remark: other sources report otherwise
Would you mind telling me the reported Trimeric HA Binding RLU of each entry?
One number for each entry, in RLU.

I need Trimeric HA Binding RLU for every entry listed below, if you could help.
1. TCN-504 (3251_K17) (antibody, V domains shown) VH: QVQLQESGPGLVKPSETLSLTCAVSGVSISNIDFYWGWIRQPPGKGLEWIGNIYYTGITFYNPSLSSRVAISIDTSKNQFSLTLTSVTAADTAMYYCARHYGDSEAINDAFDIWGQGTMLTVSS VL: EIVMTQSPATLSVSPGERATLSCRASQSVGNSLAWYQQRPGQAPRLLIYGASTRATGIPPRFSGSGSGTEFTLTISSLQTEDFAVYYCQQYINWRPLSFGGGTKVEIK
2. TCN-528 (5087_P17) (antibody, V domains shown) VH: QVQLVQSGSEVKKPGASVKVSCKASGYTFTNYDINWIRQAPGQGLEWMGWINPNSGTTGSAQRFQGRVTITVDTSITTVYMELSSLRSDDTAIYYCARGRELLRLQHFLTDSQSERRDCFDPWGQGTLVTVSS VL: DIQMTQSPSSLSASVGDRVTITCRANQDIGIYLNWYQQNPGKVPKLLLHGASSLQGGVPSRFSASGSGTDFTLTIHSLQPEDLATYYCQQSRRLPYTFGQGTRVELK
3. TCN-563 (5237_B21) (antibody, V domains shown) VH: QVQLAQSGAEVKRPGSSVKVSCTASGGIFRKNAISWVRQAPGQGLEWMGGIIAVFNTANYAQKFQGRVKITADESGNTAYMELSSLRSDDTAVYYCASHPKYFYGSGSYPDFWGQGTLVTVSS VL: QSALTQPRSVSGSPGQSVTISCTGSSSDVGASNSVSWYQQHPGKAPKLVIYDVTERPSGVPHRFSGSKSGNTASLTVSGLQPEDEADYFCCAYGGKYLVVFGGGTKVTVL
4. TCN-526 (5084_C17) (antibody, V domains shown) VH: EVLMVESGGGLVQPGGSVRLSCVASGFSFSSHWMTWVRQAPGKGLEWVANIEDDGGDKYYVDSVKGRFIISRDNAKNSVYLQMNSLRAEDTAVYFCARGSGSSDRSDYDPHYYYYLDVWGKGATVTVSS VL: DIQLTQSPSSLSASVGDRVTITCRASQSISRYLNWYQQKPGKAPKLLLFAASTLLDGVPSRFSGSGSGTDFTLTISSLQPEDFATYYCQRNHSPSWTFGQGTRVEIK

[31400, 26900, 26500, 1470]

All values here come from patent US20120207760A1.
